test system: fMLF/CB-activated human neutrophils; experiment: Neutrophil elastase release in fMLF/CB-activated human neutrophils; format: cell-based; conditions: chemical components of the extract
RECORDED_METRIC: pIC50
// scale note: pIC50 = -log10(conc_M); give the bare number

Input: Enter reported pIC50 observed with fMLF/CB-activated human neutrophils for COc1cc(O)cc(CCc2ccccc2)c1 [BF8-4-4, 3-hydroxy-5-methoxybibenzyl]
Output: 5.57

Input: Check COc1cc(CCc2cccc(O)c2)cc(OC)c1 [BF8-4-3, 3,5-dimethoxy-3′-hydroxybibenzyl] too.
Output: 5.13

Input: Next molecule up: COc1cc(O)c(Cc2ccc(O)cc2)c2c1-c1ccc(O)cc1CC2 [Orchidble]
Output: 5.20
